# Test system: Ruminococcus gnavus DSM 108212
# test.method.notes: fold change of 2-Phenylethylamine concentration vs plate DMSO controls (fold change (ratio)); higher = more amine produced
# condition.label: 5 µM; incubation time: 27 h, anaerobic, 37 °C
Structures can show the parent of a compound that is named as a salt.
Please note: Condition met applies when fold change of 2-Phenylethylamine concentration is 0.4 or greater, and Condition not met applies otherwise.

>>> print(df.to_string())
                                   compound                  assayed_system                cat
0  Cc1cc(O)c(C(=O)N[C@@H](C(=O)N[C@@H]2C(=O)N3C(C(=O)O)=C(CSc4nnnn4C)CS[C@H]23)c2ccc(O)cc2)cn1 [Cefpiramide]  Ruminococcus gnavus DSM 108212  Condition not met
1  COc1c(N2C[C@@H]3CCCN[C@@H]3C2)c(F)cc2c(=O)c(C(=O)O)cn(C3CC3)c12  Ruminococcus gnavus DSM 108212      Condition met
2  OC[C@H]1O[C@@H](n2cnc3cncnc32)[C@H](O)[C@@H]1O  Ruminococcus gnavus DSM 108212  Condition not met
3  CS(=O)(=O)c1ccc([C@@H](O)[C@@H](CF)NC(=O)C(Cl)Cl)cc1  Ruminococcus gnavus DSM 108212  Condition not met
4  C[C@@H](O)[C@H]1C(=O)N2C(C(=O)O)=C(S[C@@H]3CN[C@H](CNS(N)(=O)=O)C3)[C@H](C)[C@H]12 [Doripenem monohydrate]  Ruminococcus gnavus DSM 108212  Condition not met

Item O=C(N[C@H](CO)[C@H](O)c1ccc([N+](=O)[O-])cc1)C(Cl)Cl with fold change of 2-Phenylethylamine concentration of 0.4 or above?
Condition met

Decide: fold change of 2-Phenylethylamine concentration of CCn1cc(C(=O)O)c(=O)c2cc(F)c(N3CCNCC3)cc21 >= 0.4?
Condition met

Answer whether fold change of 2-Phenylethylamine concentration of Cn1nnnc1SCC1=C(C(=O)O)N2C(=O)[C@@H](NC(=O)[C@H](O)c3ccccc3)[C@H]2SC1 [Cefamandole sodium salt] is greater than or equal to 0.4.
Condition met

Given N[C@@H]1CCCCN(c2c(F)cc3c(=O)c(C(=O)O)cn(C4CC4)c3c2Cl)C1 [Besifloxacin hydrochloride] , state whether its fold change of 2-Phenylethylamine concentration is at least 0.4.
Condition met

====

# Test system: Ruminococcus gnavus DSM 108212
# test.method.notes: fold change of 2-Phenylethylamine concentration vs plate DMSO controls (fold change (ratio)); higher = more amine produced
# condition.label: 20 µM; incubation time: 27 h, anaerobic, 37 °C
Where a name gives a salt, the structure may show the parent alone.
In this section we review reported fold change of 2-Phenylethylamine concentration values for a set of compounds.
Answer as a number with no unit attached.

In [3]: df
Out[3]:
                                   compound  assay_result
0  COc1c(N2C[C@@H]3CCCN[C@@H]3C2)c(F)cc2c(=O)c(C(=O)O)cn(C3CC3)c12         0.274
1  N[C@@H]1CCCCN(c2c(F)cc3c(=O)c(C(=O)O)cn(C4CC4)c3c2Cl)C1 [Besifloxacin hydrochloride]         0.296
2  O=C(N[C@H](CO)[C@H](O)c1ccc([N+](=O)[O-])cc1)C(Cl)Cl         0.174

Please examine the following record next.
Any idea what fold change of 2-Phenylethylamine concentration was measured for OC[C@H]1O[C@@H](n2cnc3cncnc32)[C@H](O)[C@@H]1O ?
0.434

====

The following compounds are shown together with reported fold change of 2-Phenylethylamine concentration values.
# System: Ruminococcus gnavus DSM 108212
# test.method.notes: fold change of 2-Phenylethylamine concentration vs plate DMSO controls (fold change (ratio)); higher = more amine produced
# condition.label: 1.25 µM; incubation time: 27 h, anaerobic, 37 °C
Counter-ions that a name gives are not always drawn.

Sample answers from the record:
>>> print(df.to_string())
                                   compound  assay_result
0  OC[C@H]1O[C@@H](n2cnc3cncnc32)[C@H](O)[C@@H]1O [Nebularine]          0.65
1  C[C@@H](O)[C@H]1C(=O)N2C(C(=O)O)=C(S[C@@H]3CN[C@H](CNS(N)(=O)=O)C3)[C@H](C)[C@H]12 [Doripenem monohydrate]         0.158
2  Cn1nnnc1SCC1=C(C(=O)O)N2C(=O)[C@@H](NC(=O)[C@H](O)c3ccccc3)[C@H]2SC1 [Cefamandole sodium salt]         0.767
3  COc1c(N2C[C@@H]3CCCN[C@@H]3C2)c(F)cc2c(=O)c(C(=O)O)cn(C3CC3)c12 [Moxifloxacin]           2.4
4  O=C(N[C@H](CO)[C@H](O)c1ccc([N+](=O)[O-])cc1)C(Cl)Cl [Chloramphenicol]         0.839
5  CCn1cc(C(=O)O)c(=O)c2cc(F)c(N3CCNCC3)cc21 [Norfloxacin]          1.98

For N[C@@H]1CCCCN(c2c(F)cc3c(=O)c(C(=O)O)cn(C4CC4)c3c2Cl)C1 [Besifloxacin hydrochloride] , what is its reported fold change of 2-Phenylethylamine concentration?
0.219

What value of fold change of 2-Phenylethylamine concentration has been reported for the following compound? CS(=O)(=O)c1ccc([C@@H](O)[C@@H](CF)NC(=O)C(Cl)Cl)cc1 [Florfenicol]
0.572

Which fold change of 2-Phenylethylamine concentration reading was recorded for the compound Cc1cc(O)c(C(=O)N[C@@H](C(=O)N[C@@H]2C(=O)N3C(C(=O)O)=C(CSc4nnnn4C)CS[C@H]23)c2ccc(O)cc2)cn1 [Cefpiramide] ?
0.288

====

# System: Ruminococcus gnavus DSM 108212
# test.method.notes: fold change of Tryptamine concentration vs plate DMSO controls (fold change (ratio)); higher = more amine produced
# condition.label: 10 µM; incubation time: 27 h, anaerobic, 37 °C
Label scheme for fold change of Tryptamine concentration: lower than 0.5 is 0 (no), 0.5 and above is 1 (yes).

Reference set, count: 2
In [3]: df
Out[3]:
                                   compound      cat
0  CS(=O)(=O)c1ccc([C@@H](O)[C@@H](CF)NC(=O)C(Cl)Cl)cc1   0 (no)
1  CCn1cc(C(=O)O)c(=O)c2cc(F)c(N3CCNCC3)cc21  1 (yes)

Consider now this further compound.
Assess whether reported fold change of Tryptamine concentration for Cc1cc(O)c(C(=O)N[C@@H](C(=O)N[C@@H]2C(=O)N3C(C(=O)O)=C(CSc4nnnn4C)CS[C@H]23)c2ccc(O)cc2)cn1 [Cefpiramide] sits at 0.5 or higher.
0 (no)

====

# Test system: Ruminococcus gnavus DSM 108212
# test.method.notes: fold change of 2-Phenylethylamine concentration vs plate DMSO controls (fold change (ratio)); higher = more amine produced
# condition.label: 20 µM; incubation time: 27 h, anaerobic, 37 °C
Where a name gives a salt, the structure may show the parent alone.
Measured fold change of 2-Phenylethylamine concentration of individual entries
Could you respond with only the numeric value?

>>> print(df.to_string())
                                   compound  assay_result
0  C[C@@H](O)[C@H]1C(=O)N2C(C(=O)O)=C(S[C@@H]3CN[C@H](CNS(N)(=O)=O)C3)[C@H](C)[C@H]12 [Doripenem monohydrate]         0.111
1  Cc1cc(O)c(C(=O)N[C@@H](C(=O)N[C@@H]2C(=O)N3C(C(=O)O)=C(CSc4nnnn4C)CS[C@H]23)c2ccc(O)cc2)cn1 [Cefpiramide]         0.131
2  CCn1cc(C(=O)O)c(=O)c2cc(F)c(N3CCNCC3)cc21          1.38
3  CS(=O)(=O)c1ccc([C@@H](O)[C@@H](CF)NC(=O)C(Cl)Cl)cc1         0.199

Consider now this further compound.
Lab request: please report fold change of 2-Phenylethylamine concentration under test system Ruminococcus gnavus DSM 108212 for Cn1nnnc1SCC1=C(C(=O)O)N2C(=O)[C@@H](NC(=O)[C@H](O)c3ccccc3)[C@H]2SC1 [Cefamandole sodium salt]
0.178

====

Measured fold change of Tryptamine concentration accompanies every entry in the list below.
# Test system: Ruminococcus gnavus DSM 108212
# test.method.notes: fold change of Tryptamine concentration vs plate DMSO controls (fold change (ratio)); higher = more amine produced
# condition.label: 10 µM; incubation time: 27 h, anaerobic, 37 °C
Structures can show the parent of a compound that is named as a salt.
A bare number is all that is needed in reply.

For orientation, consider the following solved cases.
In [3]: df
Out[3]:
                                   compound  assay_result
0  O=C(N[C@H](CO)[C@H](O)c1ccc([N+](=O)[O-])cc1)C(Cl)Cl         0.506
1  COc1c(N2C[C@@H]3CCCN[C@@H]3C2)c(F)cc2c(=O)c(C(=O)O)cn(C3CC3)c12             2

Requested read-out fold change of Tryptamine concentration, target or system Ruminococcus gnavus DSM 108212, entry OC[C@H]1O[C@@H](n2cnc3cncnc32)[C@H](O)[C@@H]1O
0.552

Hi! What's the reported fold change of Tryptamine concentration for N[C@@H]1CCCCN(c2c(F)cc3c(=O)c(C(=O)O)cn(C4CC4)c3c2Cl)C1 [Besifloxacin hydrochloride] on Ruminococcus gnavus DSM 108212?
0.451

Can you look up fold change of Tryptamine concentration on Ruminococcus gnavus DSM 108212 for Cn1nnnc1SCC1=C(C(=O)O)N2C(=O)[C@@H](NC(=O)[C@H](O)c3ccccc3)[C@H]2SC1 [Cefamandole sodium salt] ?
0.357

# value lookup — system Ruminococcus gnavus DSM 108212, readout fold change of Tryptamine concentration, item C[C@@H](O)[C@H]1C(=O)N2C(C(=O)O)=C(S[C@@H]3CN[C@H](CNS(N)(=O)=O)C3)[C@H](C)[C@H]12 [Doripenem monohydrate]
0.121
